- MEASUREMENT NOTES: growth suppression of yeast trafficking mutant, preliminary HTS, modulators of trafficking downstream of Golgi apparatus project, 1536-format plate, OD 615 nm (AID 637)
- MEASUREMENT PARAMETERS: yeast transport mutant growth, absorbance 615 nm, 18 h; active compounds read high
For each of the compounds below, state its inhibition.
Give bare numbers, in %.

Below: 4 compounds and their reported inhibition.
COMPOUND: Cc1nc(-c2cnn(-c3ccccc3)c2)c2cc(C)oc2n1
UNIT ABBREV: %
RECORDED MEASUREMENT: 3.28

COMPOUND: COc1ccc(/C(O)=C2/C(=O)C(=O)N(CCN(C)C)C2c2ccccn2)cc1OC (configuration not stated)
UNIT ABBREV: %
RECORDED MEASUREMENT: -6.19

COMPOUND: O=c1cc(CSc2ccccn2)c2ccccc2[nH]1
UNIT ABBREV: %
RECORDED MEASUREMENT: 4.13

COMPOUND: O=C1CC(c2ccc(Cl)cc2)n2nc(N3C(=O)c4ccccc4C3=O)nc2N1 (configuration not stated)
UNIT ABBREV: %
RECORDED MEASUREMENT: 4.59

# per-item lookup of inhibition; items listed below
1. Cc1ccc(CNC(=O)C2CCCN(S(=O)(=O)c3cccnc3)C2)cc1 (configuration not stated)
2. COc1cc(-c2nc(-c3cccc(C(F)(F)F)c3)no2)cc(OC)c1OC
3. O=C(Cn1nnc(-c2ccncc2)n1)Nc1ccc2c(c1)CCC2
4. CCOc1ccc(-n2cc(C(=O)N3CCN(C)CC3)c3cc(OC)c(OC)cc3c2=O)cc1
5. CC(C)NC(=O)CSc1nc2ccccc2n1-c1ccccc1
6. O=C(NC1CCCC1)C(c1ccco1)N(Cc1ccccc1)C(=O)c1csnn1 (configuration not stated)
7. Cc1ccc(C(c2sc3nc(C)nn3c2O)N2CC(C)OC(C)C2)cc1 (configuration not stated)

Reply:
1. -4.18
2. -2.58
3. 2.38
4. -0.16
5. -4.13
6. 4.44
7. 0.49

For each of the compounds below, state inhibition.
1. COc1ccc2c(c1OC)C(=O)N(c1ccc3c(c1)CCC3)C2=O
2. COc1cccc(OCc2nc3ccccc3[nH]2)c1
3. COC(=O)c1c(NC(=O)c2ccc(S(=O)(=O)N3CCOCC3)cc2)sc2c1CCN(C)C2
4. O=C(NC1CCCC1)C1CC1c1ccccc1 (configuration not stated)
5. CCCCC(O)(C(NC=O)C(=O)OC)C(F)(F)F (configuration not stated)

Reply:
1: 25.7; 2: -5; 3: -7.46; 4: 1.15; 5: 7.58

Give inhibition for all compounds that follow.
1. O=C1N(CCCCN2C(=O)C3(OCCO3)c3ccccc32)c2ccccc2C12OCCO2
2. COC(=O)c1c(N)n(-c2cc(OC)cc(OC)c2)c2nc3ccccc3nc12
3. O=C(O)CN1C(=O)C2(OCCCO2)c2ccccc21
4. Cc1ccc2cc(C#N)c(NCCCNC(=O)C3CCCO3)nc2c1 (configuration not stated)

Reply:
1: 11.5; 2: 3.83; 3: 0.49; 4: 6.19

* * *

Can you tell me inhibition for the items I'm about to list?
- MEASUREMENT NOTES: growth suppression of yeast trafficking mutant, preliminary HTS, modulators of trafficking downstream of Golgi apparatus project, 1536-format plate, OD 615 nm (AID 637)
- MEASUREMENT PARAMETERS: yeast transport mutant growth, absorbance 615 nm, 18 h; active compounds read high
Answers are plain numbers, in %.

Consider the reported inhibition for these compounds:
COMPOUND: COc1cccc(-c2nc(CS(=O)CC(=O)NCCCOC(C)C)c(C)o2)c1 (centres undefined)
PARAMETER MEASURED: inhibition
RECORDED MEASUREMENT: -6.94
--
COMPOUND: c1ccc(CCc2nc(-c3cccnc3)no2)cc1
PARAMETER MEASURED: inhibition
RECORDED MEASUREMENT: 1.31
--
COMPOUND: Cc1cccc(N2CCN(S(=O)(=O)c3ccc4c(c3)CCC(=O)N4)CC2C)c1 (centres undefined)
PARAMETER MEASURED: inhibition
RECORDED MEASUREMENT: -2.18

Please give inhibition, item by item, for the list that follows.
1. CCOC(=O)CSc1nnc(-c2cccnc2)n1Cc1ccccc1
2. COC(=O)c1c(-c2cccs2)csc1NC(=O)CN1CCOCC1
3. CC1=C(C(N)=O)C(c2cccnc2)n2nc(SCc3ccccc3Cl)nc2N1 (centres undefined)
4. CC1=C(C#N)C(c2ccoc2)C(C(=O)OCc2ccccc2)=C(N)S1 (centres undefined)
5. COCCCNC(=O)CCc1nc(-c2ccccc2Cl)no1
6. COc1ccc(OCC(=O)N2CCN(C(=O)c3cccs3)CC2)cc1
7. Cc1nc2ncnn2c(Nc2ccc3c(c2)OCCO3)c1C
8. CCn1cc(C(=O)NCCCOC)c(=O)c2cc(S(=O)(=O)N(C)C3CCCCC3)ccc21

Reply:
1: -12.3; 2: -1.13; 3: -3.77; 4: 0; 5: 6.39; 6: -2.9; 7: 26.1; 8: -5.33

Dear reader, for each entry below, please note its inhibition.
1. C/C(N)=C(\C#N)C(=O)NCCc1ccccn1
2. C#CCNc1c(C)c(C)nc2ncnn12
3. CCOc1ccc(C(=O)N(Cc2ccc(N(C)C)cc2)C2CCS(=O)(=O)C2)cc1 (centres undefined)
4. CC(C)(C)c1cc(C(=O)O)nn1-c1ccccc1

Reply:
1.48
11.5
2.79
-2.54

The following compounds each have a reported value; give each one's inhibition.
1. COc1ccc(NC(=O)Nc2cc(C)ccc2OC)cc1
2. NC(=O)C1(N2CCCCC2)CCN(C2CC(=O)N(Cc3cccs3)C2=O)CC1 (centres undefined)
3. COC(=O)CSc1nc2ncc(Cl)cc2[nH]1
4. O=C(NCc1ccc2c(c1)OCO2)C1CCCN(S(=O)(=O)c2cccnc2)C1 (centres undefined)

Reply:
[-3.11, -0.48, 1.15, -6.5]

Quick batch: inhibition for everything below.
1. CC1(C)NC(=O)N(CNc2cc(Cl)ccc2Cl)C1=O
2. Cn1c(=O)[nH]c2cc3ccccc3cc21
3. O=C(CCCCCn1c(SCc2ccncc2)nc2ccccc2c1=O)NCc1ccco1
4. CC(=O)Nc1ccc(Oc2cc(C#N)c(C#N)cc2N2CCCCCC2)cc1
5. O=C(/C=N/O)Nc1cccnc1

Reply:
-1.82
-0.73
-5.71
0.95
3.71

* * *

Consider the following compounds; for each one, report its viability.
- MEASUREMENT NOTES: growth inhibitors of H69AR lung tumor, primary screen, human, duplicate replicates (AID 580);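 note: 100% = mean luminescence of untreated wells and 0% = no signal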
- MEASUREMENT PARAMETERS: H69AR lung tumor cells viability, ATP luminescence, 72 h; at 10 µM; active compounds read low
One number for each entry, in %.

COMPOUND: Cc1ccccc1NC(=O)c1c(F)c(F)c(F)c(F)c1F
viability, %: 88.9

I have 2 compounds here; please give me viability for each one.
1. CCC(=O)N1CCc2cc(Br)cc(S(=O)(=O)CCC(=O)NCC3CCCO3)c21 (stereo unspecified)
2. O=c1c2c(-c3ccccc3)csc2nc2n1CCC2

Reply:
1: 92.8; 2: 79.4

* * *

- SYSTEM: Receptor tyrosine-protein kinase erbB-2 (Homo sapiens) (UniProt P04626)
- Sequence (P04626 whole entry, looked up): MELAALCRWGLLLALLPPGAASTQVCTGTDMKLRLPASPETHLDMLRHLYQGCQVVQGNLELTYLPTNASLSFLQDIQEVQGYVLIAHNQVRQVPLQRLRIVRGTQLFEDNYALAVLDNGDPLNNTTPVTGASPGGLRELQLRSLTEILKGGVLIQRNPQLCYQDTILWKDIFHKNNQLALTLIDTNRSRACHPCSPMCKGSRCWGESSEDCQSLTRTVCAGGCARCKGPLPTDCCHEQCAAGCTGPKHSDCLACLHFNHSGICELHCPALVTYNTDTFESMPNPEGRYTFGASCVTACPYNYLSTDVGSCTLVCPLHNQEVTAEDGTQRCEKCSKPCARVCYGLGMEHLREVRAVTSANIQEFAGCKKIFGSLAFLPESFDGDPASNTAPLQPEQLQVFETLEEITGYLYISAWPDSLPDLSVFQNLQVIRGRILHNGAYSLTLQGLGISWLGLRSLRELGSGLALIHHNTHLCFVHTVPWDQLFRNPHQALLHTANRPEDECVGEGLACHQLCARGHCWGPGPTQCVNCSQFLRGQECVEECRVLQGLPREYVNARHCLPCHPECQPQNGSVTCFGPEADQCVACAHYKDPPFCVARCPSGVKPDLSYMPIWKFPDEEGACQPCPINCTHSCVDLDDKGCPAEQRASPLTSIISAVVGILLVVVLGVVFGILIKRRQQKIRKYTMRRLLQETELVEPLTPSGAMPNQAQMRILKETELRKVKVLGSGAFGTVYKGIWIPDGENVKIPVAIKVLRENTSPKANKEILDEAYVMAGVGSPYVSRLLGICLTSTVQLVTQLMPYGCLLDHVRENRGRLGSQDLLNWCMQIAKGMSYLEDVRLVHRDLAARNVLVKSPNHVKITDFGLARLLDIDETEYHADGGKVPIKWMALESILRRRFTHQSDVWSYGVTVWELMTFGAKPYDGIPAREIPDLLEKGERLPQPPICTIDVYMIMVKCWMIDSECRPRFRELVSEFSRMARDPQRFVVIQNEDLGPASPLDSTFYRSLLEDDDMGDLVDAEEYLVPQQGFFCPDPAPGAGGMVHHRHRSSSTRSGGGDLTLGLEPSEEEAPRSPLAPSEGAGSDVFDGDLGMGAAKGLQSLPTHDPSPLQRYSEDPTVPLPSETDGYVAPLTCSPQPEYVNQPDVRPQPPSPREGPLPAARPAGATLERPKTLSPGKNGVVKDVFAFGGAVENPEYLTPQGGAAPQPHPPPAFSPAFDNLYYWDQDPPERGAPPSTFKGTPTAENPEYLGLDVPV
- MEASUREMENT NOTES: reducers of endogenous Her2 protein level, primary screen, SKBR3 breast tumor cells, AlphaScreen, ATP viability (AID 461);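 note: lower value means less Her2 protein in the cells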
- MEASUREMENT PARAMETERS: 18-24 h, at 10 µM, active compounds read low
PARAMETER MEASURED: Her2 level (%)
Answers are plain numbers, in %.

// batch mode: one Her2 level value per listed entry
1. Cc1cc2nc(C3CCN(CC4COc5ccccc5O4)CC3)[nH]c2cc1C (stereo unspecified)
2. Cn1c2c(c(=O)n(C)c1=O)C(CC(=O)Nc1ccccc1)C(=O)N2 (stereo unspecified)
3. COCCn1c(C)cc(C(=O)COC(=O)c2n[nH]c3ccccc23)c1C
4. O=C1C(c2ccncc2)=C(O)c2ccccc21
5. CCOC(=O)C1CCCN(c2cc(=O)n(Cc3ccc(F)cc3)c(=O)[nH]2)C1 (stereo unspecified)
6. S=c1[nH]nc(-c2ccco2)n1-c1cccc2ccccc12

Reply:
1. 87.5
2. 78.5
3. 84
4. 87
5. 87
6. 98.5

* * *

- MEASUREMENT NOTES: growth inhibitors of H69AR lung tumor, primary screen, human, duplicate replicates (AID 580);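 note: 100% = mean luminescence of untreated wells and 0% = no signal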
- MEASUREMENT PARAMETERS: H69AR lung tumor cells viability, ATP luminescence, 72 h; at 10 µM; active compounds read low
So basically, if viability comes in under 80% it's 1, and if it's 80% or more it's -1.

Below, 4 compounds whose answers are already recorded.
COMPOUND: CCn1nc(C(=O)OCC(=O)c2cc(C)n(Cc3cccs3)c2C)c2ccccc2c1=O
DISCRETE LABEL: -1
--
COMPOUND: O=c1c2[nH]c3ccccc3c2ncn1CCCn1ccnc1
DISCRETE LABEL: -1
--
COMPOUND: O=C(OCc1nnc(-c2ccccc2)o1)c1ccc(S(=O)(=O)NCc2ccco2)cc1
DISCRETE LABEL: 1
--
COMPOUND: O=C(O)c1cc(/C=N\O)ccc1OCc1ccccc1
DISCRETE LABEL: -1

Task item: Please state whether viability is below 80% for CCOc1ccccc1NC(=O)C1CCCN1C(=O)OCc1ccccc1 (stereo unspecified)
Reply: -1
